target: Human APE1 (Homo sapiens, UniProt P27695); assay: Fluorescence-based AP site cleavage assay; settings: APE1 50 nM, wild type
I'd appreciate it if you could supply IC50 values for the items below.
Numeric answer only, unit µM assumed.

Q. For the molecule O=C(OCC(=O)N1NC(c2ccc3ccccc3c2)=CC1c1ccccc1)c1ccc([N+](=O)[O-])s1 (stereo not shown) [Compound 3] , what IC50 is on record?
A. 3

Q. For the molecule N#CC(C(=O)c1cc2ccccc2o1)c1nc2ccccc2s1 (stereo not shown) [Compound 7] , what IC50 is on record?
A. 2

Q. For the molecule O=C(COc1ccc2ccccc2c1)Nc1ccc(O)c(-c2nc3ccccc3o2)c1 [Compound 2] , what IC50 is on record?
A. 25

Q. For the molecule Cc1ccc(-c2nc(S(=O)(=O)c3ccccc3)c(SCC(=O)Nc3ccc(F)cc3)o2)cc1 [Compound 4] , what IC50 is on record?
A. 11

Q. For the molecule O=C(CSc1nc2ccccc2s1)CSc1nc2ccccc2s1 [Compound 6] , what IC50 is on record?
A. 3

Q. For the molecule O=C(O)c1cc2cc(F)ccc2[nH]1 [Compound 1, 5-fluoro-1H-indole-2-carboxylic acid] , what IC50 is on record?
A. 10

Q. For the molecule O=C(CCCn1c(SCC(=O)Nc2nccs2)nc2ccsc2c1=O)NCc1ccc2c(c1)OCO2 [Compound 5] , what IC50 is on record?
A. 12

---

tested on: melanoma and glioma cell lines; test: MTS assay, potentiation of cytotoxic agents (other inhibitors, data not shown); format: cell-based; conditions: relatively non-toxic inhibitor concentration
attribute-measured: potentiation of cytotoxicity of alkylating agents

• O=C(O)c1cc2cc(F)ccc2[nH]1 [Compound 1, 5-fluoro-1H-indole-2-carboxylic acid] = not

---

molecular target: AP endonuclease activity of HeLa whole-cell extracts (WCE) (Homo sapiens, UniProt P27695); construct: incubated at 100 μM concentrations with 30 ng of HeLa WCE at room temperature; endogenous in cells; host or cells: HeLa whole-cell extract; test: Whole-cell extract AP-site cleavage assay; assay type: biochemical; details: 30 ng HeLa WCE, read-out: WCE Inhibition (whole-cell extracts AP site cleavage inhibition)
Sequence (P27695 whole entry): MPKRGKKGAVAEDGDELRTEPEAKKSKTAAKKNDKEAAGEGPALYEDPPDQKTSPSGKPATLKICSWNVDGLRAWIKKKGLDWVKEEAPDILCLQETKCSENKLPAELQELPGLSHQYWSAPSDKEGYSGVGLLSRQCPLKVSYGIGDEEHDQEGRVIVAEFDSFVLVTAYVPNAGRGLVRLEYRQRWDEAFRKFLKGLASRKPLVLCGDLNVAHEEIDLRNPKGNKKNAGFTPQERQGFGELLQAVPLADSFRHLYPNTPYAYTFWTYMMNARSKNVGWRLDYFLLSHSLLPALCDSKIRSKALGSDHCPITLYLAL
I'd appreciate it if you could supply inhibition at 100 µM values for the items below.

Q. For the compound `O=C(O)c1cc2cc(F)ccc2[nH]1` , what inhibition at 100 µM is on record?
A. < 50%

Q. For the compound `Cc1ccc(-c2nc(S(=O)(=O)c3ccccc3)c(SCC(=O)Nc3ccc(F)cc3)o2)cc1` , what inhibition at 100 µM is on record?
A. > 75%

Q. For the compound `O=C(CCCn1c(SCC(=O)Nc2nccs2)nc2ccsc2c1=O)NCc1ccc2c(c1)OCO2` , what inhibition at 100 µM is on record?
A. 50 to 75%

Q. For the compound N#CC(C(=O)c1cc2ccccc2o1)c1nc2ccccc2s1 (centres unmarked) , what inhibition at 100 µM is on record?
A. 50 to 75%

Q. For the compound `O=C(COc1ccc2ccccc2c1)Nc1ccc(O)c(-c2nc3ccccc3o2)c1` , what inhibition at 100 µM is on record?
A. 50 to 75%
